Cited source for all entries: PubChem BioAssay AID1963875

- Test system: KRAS-mutant PDC complex spheroid viability
- experiment summary: Anticancer human tumor 186277-243-T-J2-PDC patient-derived colon adenocarcinoma cell line growth inhibition [KRAS2]; active = viability on the fitted dose curve at most 10% of control; inactive = the rest
- conditions used: second compound 0.316 µM; first compound 10 µM
// classify into y = active, n = inactive

COc1cc(Nc2ncc3c(n2)-c2ccc(Cl)cc2C(c2c(F)cccc2OC)=NC3)ccc1C(=O)O + CC1OCC2(CCN(c3cnc(Sc4ccnc(N)c4Cl)c(N)n3)CC2)C1N ... n
CC1(C)CCC(CN2CCN(c3ccc(C(=O)NS(=O)(=O)c4ccc(NCC5CCOCC5)c([N+](=O)[O-])c4)c(Oc4cnc5[nH]ccc5c4)c3)CC2)=C(c2ccc(Cl)cc2)C1 + COc1cc2nc(C)nc(NC(C)c3cc(N)cc(C(F)(F)F)c3)c2cc1OC1CCOC1 ... y
O=C(c1cc(Cc2n[nH]c(=O)c3ccccc23)ccc1F)N1CCN(C(=O)C2CC2)CC1 + CNCc1ccccc1-c1csc(C(C)Nc2nc(C)nc3cc(OC)c(OC)cc23)c1 ... n
Cn1nccc1Nc1nccc(-c2cc3c(s2)C(C)(C)N(CCN2CCOCC2)C3=O)n1 + C=CC(=O)N1CCN(c2nc(=O)n(-c3c(C)ccnc3C(C)C)c3nc(-c4c(O)cccc4F)c(F)cc23)C(C)C1 ... y

Below: the item to evaluate.
Input: For COc1cc2nccc(Oc3ccc(NC(=O)C4(C(=O)Nc5ccc(F)cc5)CC4)cc3)c2cc1OC + C=CC(=O)N1CCN(c2nc(OCC3CCCN3C)nc3c2CCN(c2cccc4cccc(C)c24)C3)CC1CC#N , which call appears in the assay record?
Output: n

* * *

- Test system: KRAS-mutant PDC complex spheroid viability
- experiment summary: Anticancer human tumor 186277-243-T-J2-PDC cell line growth inhibition [KRAS2];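 as to viability, T/C: viability read after seven days of compound exposure; 100% = DMSO vehicle-treated spheroids so lower means less viable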
- conditions used: second compound 0.1 µM; first compound 0.001 µM; stronger effect = lower value
measure: viability, T/C

CN(C)C/C=C/C(=O)Nc1cc2c(Nc3ccc(F)c(Cl)c3)ncnc2cc1O[C@H]1CCOC1 + CC1OCC2(CCN(c3cnc(Sc4ccnc(N)c4Cl)c(N)n3)CC2)C1N ... 104%
CN(C)C/C=C/C(=O)Nc1cc2c(Nc3ccc(F)c(Cl)c3)ncnc2cc1O[C@H]1CCOC1 + CNCc1ccccc1-c1csc(C(C)Nc2nc(C)nc3cc(OC)c(OC)cc23)c1 ... 100%

Here's the next entry for you.
Input: Look up viability, T/C for this compound: Cn1ncnc1[C@H]1c2n[nH]c(=O)c3cc(F)cc(c23)N[C@@H]1c1ccc(F)cc1 + C=CC(=O)N1CCN(c2nc(=O)n(-c3c(C)ccnc3C(C)C)c3nc(-c4c(O)cccc4F)c(F)cc23)C(C)C1
Output: 97.1%

* * *

- Test system: KRAS-mutant PDC complex spheroid viability
- experiment summary: Anticancer human tumor 186277-243-T-J2-PDC cell line growth inhibition [KRAS2]
- conditions used: curve of first compound; second compound 3.16 µM
pIC50: −log10 of the molar value.
Assignment: determine reported pIC50 for the given compounds.

These recorded examples may help you get a feel for the data.
CC(=O)Nc1cccc(-n2c(=O)n(C3CC3)c(=O)c3c(Nc4ccc(I)cc4F)n(C)c(=O)c(C)c32)c1 + CNCc1ccccc1-c1csc(C(C)Nc2nc(C)nc3cc(OC)c(OC)cc23)c1 ... > 10.00
COc1cc(Nc2ncc3c(n2)-c2ccc(Cl)cc2C(c2c(F)cccc2OC)=NC3)ccc1C(=O)O + CC1OCC2(CCN(c3cnc(Sc4ccnc(N)c4Cl)c(N)n3)CC2)C1N ... > 7.50
CC1OCC2(CCN(c3cnc(Sc4ccnc(N)c4Cl)c(N)n3)CC2)C1N (stereo not given) + C=CC(=O)N1CCN(c2nc(OCC3CCCN3C)nc3c2CCN(c2cccc4cccc(C)c24)C3)CC1CC#N ... > 7.50
Cn1ncnc1[C@H]1c2n[nH]c(=O)c3cc(F)cc(c23)N[C@@H]1c1ccc(F)cc1 + COc1cc2nc(C)nc(NC(C)c3cc(N)cc(C(F)(F)F)c3)c2cc1OC1CCOC1 ... < 7.00

Query compound follows.
Input: Look up pIC50 with KRAS-mutant PDC complex spheroid viability for this compound: CC1COCCN1c1cc(-c2ccnn2C)c2ccnc(-c3ccn[nH]3)c2n1 (stereo not given) + COc1cc2nc(C)nc(NC(C)c3cc(N)cc(C(F)(F)F)c3)c2cc1OC1CCOC1
Output: 7.70
